- TEST_TARGET: GlcNAc(b1-3)[GlcNAc(b1-6)]GlcNAc
- ASSAY_NOTES: glycan array binding signal (z-score within array); higher = stronger binding
- EXPERIMENTAL_CONDITIONS: glycan notation: IUPAC condensed, linker removed
This excerpt belongs to a sample that is enriched for the strongest signals.
Entries and their measured glycan array binding signal (z-score) follow.
READOUT: glycan array binding signal (z-score)

>>> measured("RNase 1 (Homo sapiens) (protein) KESRAKKFQRQHMDSDSSPSSSSTYCNQMMRRRNMTQGRCKPVNTFVHEPLVDVQNVCFQEKVTCKNGQGNCYKSNSSMHITDCRLTNGSRYPNCAYRTSPKERHIIVACEGSPYVPVHFDASVEDST")
-0.116
>>> measured("XL-35 (Xenopus laevis) (protein) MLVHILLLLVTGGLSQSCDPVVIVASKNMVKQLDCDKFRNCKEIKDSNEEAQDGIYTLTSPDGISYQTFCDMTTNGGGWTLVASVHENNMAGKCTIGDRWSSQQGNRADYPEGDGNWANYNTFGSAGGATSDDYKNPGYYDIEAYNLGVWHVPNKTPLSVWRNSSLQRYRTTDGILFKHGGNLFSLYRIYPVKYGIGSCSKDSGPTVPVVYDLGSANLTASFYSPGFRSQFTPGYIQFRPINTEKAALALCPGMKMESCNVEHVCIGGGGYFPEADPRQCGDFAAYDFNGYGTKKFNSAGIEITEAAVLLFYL")
-0.058
>>> measured("TIM-1 (Mus musculus), AAL35774 (protein) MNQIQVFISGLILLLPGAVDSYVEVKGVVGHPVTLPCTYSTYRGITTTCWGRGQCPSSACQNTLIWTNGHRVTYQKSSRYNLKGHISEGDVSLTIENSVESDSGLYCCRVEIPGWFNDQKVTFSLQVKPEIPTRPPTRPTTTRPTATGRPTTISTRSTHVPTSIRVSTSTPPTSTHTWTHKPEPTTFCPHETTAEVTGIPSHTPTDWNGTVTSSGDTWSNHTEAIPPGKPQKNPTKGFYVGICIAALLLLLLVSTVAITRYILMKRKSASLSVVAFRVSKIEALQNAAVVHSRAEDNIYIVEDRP")
-0.61
>>> measured("STA (Solanum tuberosum) (protein) NASAPLPYPQCGLKKGGGKCIKTGECCSIWGWCGTTSDYCAPGYCQKQCPGPYPQGRCGWQANGKSCPTGTGQCCSNAGWCGTTSDYCAPNNCQSQCKLPPPPPSPPPPPPSPPPPSPPPPPPSPPPPSPSPPPPPPSPPPPSPPPPSPPPPSPPPPPSPSPPPPPPSPPPPPPPLPYPQCGMKKGGGKCIKTGECCSIWGWCGTTSKYCSPGYCQMQCPDPYPEGRCGWQANGKSCPTGTGQCCSNAGWCGTTSAYCAPVNCQAQCNTTTLTSPIKNRMRGIESFMLNVV")
-0.269
